Recorded GI50, one value per entry.
# System: MDA-N
# Assay Comment: NCI tumour cell line growth inhibition, 48 h
The source made the active and inactive calls. Rule as the data show it: active = GI50 up to about 1.1 µM and inactive = higher.

| Compound | GI50 |
| --- | --- |
| C=C1C(=O)C2(C)OC2(C)C1C(=O)O (centres undefined) | > 100 µM (inactive) |

Param item = CCOC(=O)CNC(=O)CNC(=O)CNC(=O)CNNc1c(OCc2ccccc2)c(=O)c1=O ; retrieve measured GI50.
> 100 µM (inactive)

Fill in the blank: the reported GI50 of CCOC(=O)/C=C/[C@@H](CC)O[Si](C(C)C)(C(C)C)C(C)C is ____.
> 100 µM (inactive)

So what does the record say about GI50 for COc1ccc(CC2C3=C(CCCC3)CCN2C)cc1 (centres undefined) ?
> 100 µM (inactive)

Which GI50 is reported for this compound? C=C(CCOC)CCC1CCCCC(=C)[C@H]1OC(C)=O (some centres undefined)
> 100 µM (inactive)

Would you kindly share the measured GI50 for C=CCn1c(-c2ccc([N+](=O)[O-])cc2)cs/c1=N\C(P(=O)(O)O)P(=O)(O)O ?
> 100 µM (inactive)

* * *

# Test system: NCI-H23
# Assay Comment: NCI tumour cell line growth inhibition, 48 h
Activity calls are given as the source filed them. Rule as the data show it: active = GI50 up to about 1.1 µM and inactive = higher.
Measurement Name: GI50

Consider the worked cases shown below.
| Compound | GI50 |
| --- | --- |
| O=C(CSc1nc2ccc(I)cc2c(=O)n1Cc1ccccc1)N/N=C/c1ccccc1 | 17.5 µM (inactive) |
| CC(=O)NC1=C(Sc2ccc(Cl)cc2)C(=O)c2ccccc2C1=O | 5.28 µM (inactive) |
| O=C1C=CC(=O)c2c(O)c(N3CCN(c4ccccn4)CC3)cc(O)c21 | 3.4 µM (inactive) |

Would you mind telling me what GI50 value was observed for Cc1cc2c(cc1C)[n+]([O-])c(C(F)(F)F)c(C(=O)c1ccccc1)[n+]2[O-] ?
2.12 µM (inactive)

I am curious: what GI50 value has been reported for COC12C=CC(CC1)C1C(=O)c3c(C)c(C)n(C)c3C(=O)C12 (stereo not given) ?
99.5 µM (inactive)

* * *

# Test system: RXF 393
# Assay Comment: NCI tumour cell line growth inhibition, 48 h
Activity calls are given as the source filed them. No stated cut-off is given here; in the data, active = GI50 up to about 1.1 µM and inactive = higher.
Reported GI50 values for the following molecules.

Examples with their reported GI50 follow.
| Molecule | Measurement Name | Reported Measurement |
| --- | --- | --- |
| CC/C(C)=C1\CCC(CN2CCOCC2)C1=O (centres undefined) | GI50 | 6.78 µM (inactive) |
| C(CCc1nnc2c(n1)CCCC2)Cc1nnc2c(n1)CCCC2 | GI50 | > 100 µM (inactive) |
| CCOc1ccc(NCC2CC/C(=C\c3ccc(O)cc3)C2=O)cc1 (centres undefined) | GI50 | 18.7 µM (inactive) |
| COC12C=CC(CC1)C1C(=O)c3c(C)c(C)n(C)c3C(=O)C12 (centres undefined) | GI50 | > 100 µM (inactive) |
| Cc1sc2c(c1C)C(=O)c1cccn1-2 | GI50 | 59 µM (inactive) |
| O=C1C(=O)N(c2ccc(Cl)cc2)C(=O)C(=O)C1c1nc2ccccc2o1 | GI50 | > 100 µM (inactive) |

Suppose we examine the molecule NNC(=O)CC(=O)Nc1cccc(Cl)c1 ; what GI50 value has been reported?
> 100 µM (inactive)

Which GI50 is reported for this molecule? CC(C)(O)[C@@H]1CC[C@](C)(C2[C@@H](O)C[C@@]3(C)C4C[C@H](OC5OCC(O)C(O)C5O)[C@H]5C(C)(C)[C@@H](OC6OCC(O)C(O)C6OC6OCC(O)C(O)C6O)CC[C@@]56C[C@@]46CC[C@]23C)O1 (some centres undefined)
> 100 µM (inactive)

Look up GI50 for this molecule: ON1CCc2c([nH]c3ccccc23)C1c1ccc(Cl)cc1 (centres undefined)
22.1 µM (inactive)

Please look up its GI50: CC1=Cc2ccc(C)cc2C(=O)C1=O
1.83 µM (inactive)

Request the reported GI50 associated with NC(=O)OCc1c(-c2ccccc2)nn(-c2ccccc2)c1COC(N)=O
> 100 µM (inactive)

Would you mind telling me what GI50 value was observed for C/C=C/CC(S(=O)(=O)c1ccccc1)S(=O)(=O)c1ccccc1 ?
> 100 µM (inactive)

Item under review: CCN(CC)CC(O)CNc1ccc(NCC(O)CCl)c2c1C(=O)c1ccccc1C2=O (centres undefined) . Reported GI50?
12.6 µM (inactive)

Would you mind telling me what GI50 value was observed for COc1cc(/C=C2\Sc3scc(-c4cccc([N+](=O)[O-])c4)[n+]3C2=O)cc(OC)c1OC ?
12.5 µM (inactive)

* * *

# Test system: BT-549
# Assay Comment: NCI tumour cell line growth inhibition, 48 h
The source made the active and inactive calls. Cut-off read from the data, not from the text of the source: active = GI50 up to about 1.1 µM and inactive = higher.
Measurement Name: GI50

| Compound | Reported Measurement |
| --- | --- |
| O=C(C=P(c1ccccc1)(c1ccccc1)c1ccccc1)c1cccc(-c2cccc([N+](=O)[O-])c2)c1 | 4.74 µM (inactive) |
| O=c1cc(/N=N/c2ccc(O)cc2)[nH]c(=O)[nH]1 | > 100 µM (inactive) |
| CC(C)=NNc1cnnc2ccc([N+](=O)[O-])cc12 | > 100 µM (inactive) |
| CC(C)(C)c1ccc(S(=O)(=O)N2C(c3cccc(C4CC[C@@H](C(=O)O)N4S(=O)(=O)c4ccc(C(C)(C)C)cc4)c3)CC[C@H]2C(=O)O)cc1 (some centres undefined) | 50 µM (inactive) |
| O=C1C=CC(=O)c2c(O)c(N3CCN(c4ccccn4)CC3)cc(O)c21 | 10.7 µM (inactive) |

GI50 lookup needed for Cc1sc2c(c1C)C(=O)c1cccn1-2 , thanks.
47.2 µM (inactive)

Requested read-out: GI50. Entry: FC(F)(Sc1ncccn1)c1nc2ccccc2o1
> 100 µM (inactive)

Requested read-out: GI50. Entry: CCCCS(=O)(=O)CCC(N)P(=O)(O)O (centres undefined)
> 100 µM (inactive)

Could you share which GI50 value was measured for O=C(O)COc1c(Cl)cc(Cl)c(C(c2c(Cl)cc(Cl)c(OCC(=O)O)c2Cl)C(Cl)(Cl)Cl)c1Cl ?
23.1 µM (inactive)

So what's the measured GI50 for this one? O=[N+]([O-])c1ccc(/C=C(/c2ccc([N+](=O)[O-])o2)S(=O)(=O)c2ccccc2)o1
19.9 µM (inactive)

Can you share its GI50? I mean this compound: COC(C)(C)[C@@H](O)[C@H]1C[C@H](C)[C@@]2(CC[C@]3(C)[C@@H]2CC[C@@H]2[C@@]4(C)CC[C@@H](OC(C)=O)C(C)(C)[C@@H]4C[C@@H](OC4OC(COC(C)=O)C(O)C(O)C4O)[C@]23C)O1 (some centres undefined)
4.86 µM (inactive)

* * *

# Test system: SF-539
# Assay Comment: NCI tumour cell line growth inhibition, 48 h
Calls of active or inactive are those of the source. Rule as the data show it: active = GI50 up to about 1.1 µM and inactive = higher.
// GI50 lookup, one value per entry

Example entries and their recorded answers appear below.
| Compound | GI50 |
| --- | --- |
| COC(CN(C)C(=S)Nc1cccc2ccccc12)OC | > 10 µM (inactive) |
| ClCCN(CC#CCCCC#CCN(CCCl)CCCl)CCCl | 8.36 µM (inactive) |
| CC1(C)OC[C@@H](O)[C@H](C#N)CO1 | > 100 µM (inactive) |
| O=C(N/N=C1/C(=O)c2c3ccccc3cc3cccc1c23)c1ccccc1 | 37.1 µM (inactive) |

What measured GI50 goes with C=C1C(=O)C2(C)OC2(C)C1C(=O)O (stereo not given) ?
> 100 µM (inactive)

* * *

# System: 786-0
# Assay Comment: NCI tumour cell line growth inhibition, 48 h
The source made the active and inactive calls. No stated cut-off is given here; in the data, active = GI50 up to about 1.1 µM and inactive = higher.
Tick one outcome: active, inactive

| Compound | Group Label |
| --- | --- |
| CCOc1ccc(OCC)c([P+](c2ccccc2)(c2ccccc2)c2ccccc2)c1 | active |
| CN(C)/C=N/c1nc2c(ncn2C2OC(CO)C(O)C2O)c(=O)[nH]1 (stereo not drawn) | inactive |
| COc1cc(O)c2c(=O)c(OC)c(-c3ccc(OC)c(O)c3)oc2c1 | inactive |
| O=c1[nH]c(=O)n(COCc2ccccc2)cc1Nc1ccc(Br)cc1 | inactive |
| C=C1CCC2C(C)(CO)C(O)CCC2(C)C1CC(O)/C(=C/CO)C(=O)O (stereo not drawn) | inactive |
| O=C(CC1(O)C(=O)Nc2c(Cl)cccc21)c1ccccc1 (stereo not drawn) | inactive |

Which result was noted for this compound in the test: COc1ccc(NC(=O)C/C(C)=N\N=C(N)N)c([N+](=O)[O-])c1
inactive

Look up the recorded call for CN(C)c1ccccc1CN1CCCN(Cc2ccccc2N(C)C)C1c1ccncc1 in this test.
inactive

I'd appreciate the recorded outcome for CCOC(=O)CNC(=O)CNC(=O)CNC(=O)CNNc1c(OCc2ccccc2)c(=O)c1=O from this test.
inactive

What did this assay record as the result for COc1ccc(/N=C2\C(=N/c3ccc(OC)cc3)N(S(=O)(=O)c3ccccc3)C(=S)N2c2ccccc2)cc1 ?
inactive

For CC1=C(C(=O)Nc2ccccc2)C(c2ccccc2Cl)C(C(=O)Nc2ccccc2)=C(C)N1 , what call appears in the results of this test?
inactive

Test call, this compound: CC1=NN(c2ccccc2)C2(C1)C(Cl)C(=O)N2c1nc2ccccc2s1 (stereo not drawn)
inactive

Which outcome was assigned to CC/C(C)=C1\CCC(CN2CCOCC2)C1=O (stereo not drawn) in this test?
inactive
